Biological target: human TAS2R4 (Homo sapiens, UniProt Q9NYW5)
Construct: expressed in transfected cells; host or cells: HEK293T-Gα16gust44
Sequence (Q9NYW5 whole entry): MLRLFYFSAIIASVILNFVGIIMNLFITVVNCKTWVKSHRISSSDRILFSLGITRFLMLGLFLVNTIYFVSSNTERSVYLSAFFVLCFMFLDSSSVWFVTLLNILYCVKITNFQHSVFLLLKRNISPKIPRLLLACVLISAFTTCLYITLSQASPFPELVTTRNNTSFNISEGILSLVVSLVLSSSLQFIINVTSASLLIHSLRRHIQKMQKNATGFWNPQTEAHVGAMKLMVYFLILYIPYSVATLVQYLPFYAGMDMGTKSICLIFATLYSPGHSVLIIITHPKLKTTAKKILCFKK
Assay: Calcium imaging assay (FLIPR), HEK293T-Gα16gust44 cells transfected with human TAS2R4; further: test concentration or dose not given here
Type: cell-based
Conditions: Time (s) 209.547
We begin with a simple list: items and their reported RLU, fluorescence trace.
Give your result in RLU as a bare value.

Consider the reported RLU, fluorescence trace for these compounds:
Compound smiles | RLU, fluorescence trace [RLU]
C[C@H](CCC(=O)NCC(=O)O)[C@H]1CC[C@H]2[C@@H]3[C@H](O)C[C@@H]4C[C@H](O)CC[C@]4(C)[C@H]3C[C@H](O)[C@]12C | 203.53
C[C@H](CCC(=O)NCCS(=O)(=O)O)[C@H]1CC[C@H]2[C@@H]3[C@H](O)C[C@@H]4C[C@H](O)CC[C@]4(C)[C@H]3C[C@H](O)[C@]12C | 306.856

Would you mind telling me what RLU, fluorescence trace value was observed for C[C@H](CCC(=O)O)[C@H]1CC[C@H]2[C@@H]3CC[C@@H]4C[C@H](O)CC[C@]4(C)[C@H]3C[C@H](O)[C@]12C ?
348.008

Same lookup for C[C@H](CCC(=O)NCCS(=O)(=O)O)[C@H]1CC[C@H]2[C@@H]3CC[C@@H]4C[C@H](O)CC[C@]4(C)[C@H]3CC[C@]12C , please.
90.5191

Same lookup for C[C@H](CCC(=O)O)[C@H]1CC[C@H]2[C@@H]3[C@@H](O)C[C@@H]4C[C@H](O)CC[C@]4(C)[C@H]3CC[C@]12C , please.
155.822

Same lookup for C[C@H](CCC(=O)O)[C@H]1CC[C@H]2[C@@H]3[C@H](O)C[C@@H]4C[C@H](O)CC[C@]4(C)[C@H]3C[C@H](O)[C@]12C , please.
219.78
